target: Quinolone resistance protein NorA (Staphylococcus aureus); experiment: Inhibition of NorA overexpressing Staphylococcus aureus K2378 assessed as fold reduction of ciprofloxacin MIC at 25 ug/mL by microdilution technique
metric: fold change (FC)
Answer with the value's number alone.

# input compound: "CC(C)CCOc1ccc(C2=Nc3ccccc3SC2)cc1" ; wanted: its fold change (FC)
2

# input compound: "Fc1ccc(C2=Nc3ccccc3SC2)cc1" ; wanted: its fold change (FC)
16

# input compound: "COC(=O)[C@H]1[C@H]2C[C@@H]3c4[nH]c5cc(OC)ccc5c4CCN3C[C@H]2C[C@@H](OC(=O)c2cc(OC)c(OC)c(OC)c2)[C@@H]1OC" ; wanted: its fold change (FC)
4

# input compound: "CCCOc1ccc(C2=CSc3ccccc3N2C)cc1" ; wanted: its fold change (FC)
4

# input compound: COc1ccc(C2CSc3ccccc3N2)cc1 (stereo not given) ; wanted: its fold change (FC)
8

# input compound: "COc1cc(C2=Nc3ccccc3SC2)cc(OC)c1OC" ; wanted: its fold change (FC)
16

# input compound: "CCCOc1ccc(C2=Nc3ccccc3SC2)cc1" ; wanted: its fold change (FC)
4

# input compound: "COc1cccc(C2=Nc3ccccc3SC2)c1" ; wanted: its fold change (FC)
8

# input compound: "COc1ccc(C2=Nc3ccccc3SC2)cc1OC" ; wanted: its fold change (FC)
16

# input compound: "COc1ccccc1C1=Nc2ccccc2SC1" ; wanted: its fold change (FC)
8

# input compound: "COc1ccc(C2=Nc3ccccc3SC2)cc1" ; wanted: its fold change (FC)
16

# input compound: "COc1ccc(C2=Nc3cc(C(F)(F)F)ccc3SC2)cc1" ; wanted: its fold change (FC)
8

# input compound: "FC(F)(F)c1ccc2c(c1)N=C(c1ccccc1)CS2" ; wanted: its fold change (FC)
16

# input compound: "O=[N+]([O-])c1ccc(C2=Nc3ccccc3SC2)cc1" ; wanted: its fold change (FC)
2

# input compound: "Clc1ccc(C2=Nc3ccccc3SC2)cc1" ; wanted: its fold change (FC)
4

# input compound: CSc1ccc(C2CSc3ccccc3N2)cc1 (stereo not given) ; wanted: its fold change (FC)
16

# input compound: "CN(C)CCCN1c2ccccc2Sc2ccc(Cl)cc21" ; wanted: its fold change (FC)
8

# input compound: "O=S1(=O)C=C(c2ccccc2)Nc2ccccc21" ; wanted: its fold change (FC)
2

# input compound: "O=S1(=O)C=C(c2ccc(Cl)cc2)Nc2ccccc21" ; wanted: its fold change (FC)
2

###

tested on: Staphylococcus aureus; experiment: Antibacterial activity against wild type Staphylococcus aureus ATCC 25923 by microdilution technique; type: functional
What MIC was measured for each of the following?
Kindly answer with a numeric value in µg/mL, unit omitted.

# input compound: "CCCOc1ccc(C2=Nc3ccccc3SC2)cc1" ; wanted: its MIC
128

# input compound: "COc1ccc(C2=Nc3cc(C(F)(F)F)ccc3SC2)cc1" ; wanted: its MIC
64

# input compound: "COc1ccccc1C1=Nc2ccccc2SC1" ; wanted: its MIC
64

# input compound: "COC(=O)[C@H]1[C@H]2C[C@@H]3c4[nH]c5cc(OC)ccc5c4CCN3C[C@H]2C[C@@H](OC(=O)c2cc(OC)c(OC)c(OC)c2)[C@@H]1OC" ; wanted: its MIC
128

# input compound: "Clc1ccc(C2=Nc3ccccc3SC2)cc1" ; wanted: its MIC
64

###

target: Quinolone resistance protein NorA (Staphylococcus aureus); experiment: Inhibition of NorA deficient Staphylococcus aureus K1902 assessed as fold reduction of ciprofloxacin MIC at 25 ug/mL by microdilution technique
What fold change (FC) was measured for each of the following?
Answer with the value's number alone.

Can you look up fold change (FC) on Quinolone resistance protein NorA (Staphylococcus aureus) for "COC(=O)[C@H]1[C@H]2C[C@@H]3c4[nH]c5cc(OC)ccc5c4CCN3C[C@H]2C[C@@H](OC(=O)c2cc(OC)c(OC)c(OC)c2)[C@@H]1OC" ?
2

Can you look up fold change (FC) on Quinolone resistance protein NorA (Staphylococcus aureus) for "COc1ccc(C2=Nc3ccccc3SC2)cc1OC" ?
2

Can you look up fold change (FC) on Quinolone resistance protein NorA (Staphylococcus aureus) for "Fc1ccc(C2=Nc3ccccc3SC2)cc1" ?
2

Can you look up fold change (FC) on Quinolone resistance protein NorA (Staphylococcus aureus) for "O=[N+]([O-])c1ccc(C2=Nc3cc(C(F)(F)F)ccc3SC2)cc1" ?
2

Can you look up fold change (FC) on Quinolone resistance protein NorA (Staphylococcus aureus) for "Cc1ccc(C2=Nc3ccccc3SC2)cc1" ?
8

Can you look up fold change (FC) on Quinolone resistance protein NorA (Staphylococcus aureus) for "Clc1ccc(C2=Nc3ccccc3SC2)cc1" ?
4

###

What MIC was measured for each of the following?
tested on: Staphylococcus aureus; assay: Antibacterial activity against wild type Staphylococcus aureus ATCC 25923 by microdilution technique; assay type: functional

# input compound: "COc1ccc(C2=Nc3ccccc3SC2)cc1" ; wanted: its MIC
> 512 µg/mL

# input compound: CSc1ccc(C2CSc3ccccc3N2)cc1 (stereo not given) ; wanted: its MIC
> 128 µg/mL

# input compound: "c1ccc(C2=Nc3ccccc3SC2)cc1" ; wanted: its MIC
> 512 µg/mL

# input compound: "CC(C)CCOc1ccc(C2=Nc3ccccc3SC2)cc1" ; wanted: its MIC
> 128 µg/mL

# input compound: COc1ccc(C2CSc3ccccc3N2)cc1 (stereo not given) ; wanted: its MIC
> 128 µg/mL
